Test system: KRAS PDC tumor spheroids (HUVEC+MSC), viability
Experiment: Anticancer human tumor 254851-301-R-J1-PDC patient-derived colon carcinoma cell line growth inhibition [KRAS2]
Conditions: second compound 0.316 µM; first compound 0.0316 µM; stronger effect = lower value
testReadout: viability, T/C (%)
Provide the reading as a plain figure in %.

Req: Param readout= viability, T/C; system= KRAS PDC tumor spheroids (HUVEC+MSC), viability; entry= CC1(C)CCC(CN2CCN(c3ccc(C(=O)NS(=O)(=O)c4ccc(NCC5CCOCC5)c([N+](=O)[O-])c4)c(Oc4cnc5[nH]ccc5c4)c3)CC2)=C(c2ccc(Cl)cc2)C1 + CNCc1ccccc1-c1csc(C(C)Nc2nc(C)nc3cc(OC)c(OC)cc23)c1 ; returns value.
Resp: 91.9

Req: Param readout= viability, T/C; system= KRAS PDC tumor spheroids (HUVEC+MSC), viability; entry= CN(C)C/C=C/C(=O)Nc1cc2c(Nc3ccc(F)c(Cl)c3)ncnc2cc1O[C@H]1CCOC1 + C=CC(=O)N1CCN(c2nc(OCC3CCCN3C)nc3c2CCN(c2cccc4cccc(C)c24)C3)CC1CC#N ; returns value.
Resp: 89.3

Req: Param readout= viability, T/C; system= KRAS PDC tumor spheroids (HUVEC+MSC), viability; entry= CC1OCC2(CCN(c3cnc(Sc4ccnc(N)c4Cl)c(N)n3)CC2)C1N (stereo not drawn) + C=CC(=O)N1CCN(c2nc(OCC3CCCN3C)nc3c2CCN(c2cccc4cccc(C)c24)C3)CC1CC#N ; returns value.
Resp: 89.8

---

Answer each item with its documented pIC50.
System: KRAS PDC tumor spheroids (HUVEC+MSC), viability
Test: Anticancer human tumor 254851-301-R-J1-PDC cell line growth inhibition [KRAS2];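 further: spheroids exposed to compounds for seven days before readout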
Settings: curve of first compound; second compound 0.1 µM
pIC50: −log10 of the molar value.

Req: So what does the record say about pIC50 for Cn1ncnc1[C@H]1c2n[nH]c(=O)c3cc(F)cc(c23)N[C@@H]1c1ccc(F)cc1 + C=CC(=O)N1CCN(c2nc(=O)n(-c3c(C)ccnc3C(C)C)c3nc(-c4c(O)cccc4F)c(F)cc23)C(C)C1 ?
Resp: < 7.00

Req: So what does the record say about pIC50 for COC(=O)c1ccc2c(C(=Nc3ccc(N(C)C(=O)CN4CCN(C)CC4)cc3)c3ccccc3)c(O)[nH]c2c1 + C=CC(=O)N1CCN(c2nc(OCC3CCCN3C)nc3c2CCN(c2cccc4cccc(C)c24)C3)CC1CC#N ?
Resp: < 5.00

Req: So what does the record say about pIC50 for O=C(c1cc(Cc2n[nH]c(=O)c3ccccc23)ccc1F)N1CCN(C(=O)C2CC2)CC1 + C=CC(=O)N1CCN(c2nc(OCC3CCCN3C)nc3c2CCN(c2cccc4cccc(C)c24)C3)CC1CC#N ?
Resp: < 5.00

Req: So what does the record say about pIC50 for CCNC(=O)CC1N=C(c2ccc(Cl)cc2)c2cc(OC)ccc2-n2c(C)nnc21 (stereo unspecified) + C=CC(=O)N1CCN(c2nc(OCC3CCCN3C)nc3c2CCN(c2cccc4cccc(C)c24)C3)CC1CC#N ?
Resp: < 5.00

Req: So what does the record say about pIC50 for O=C(c1cc(Cc2n[nH]c(=O)c3ccccc23)ccc1F)N1CCN(C(=O)C2CC2)CC1 + C=CC(=O)N1CCN(c2nc(=O)n(-c3c(C)ccnc3C(C)C)c3nc(-c4c(O)cccc4F)c(F)cc23)C(C)C1 ?
Resp: < 5.00

Req: So what does the record say about pIC50 for COC(=O)c1ccc2c(C(=Nc3ccc(N(C)C(=O)CN4CCN(C)CC4)cc3)c3ccccc3)c(O)[nH]c2c1 + COc1cc2nc(C)nc(NC(C)c3cc(N)cc(C(F)(F)F)c3)c2cc1OC1CCOC1 ?
Resp: < 5.00
